biological target: NHE-1 (Homo sapiens, UniProt P19634); construct: endogenous in cells; experiment: Evaluation of NHE-1 Inhibition (pHi) in HT-29 cells; details: BCECF dye, 50% inhibition of the intracellular pH recovery, read-out: NHE1 HT29 pHi IC50
Sequence (P19634 whole entry): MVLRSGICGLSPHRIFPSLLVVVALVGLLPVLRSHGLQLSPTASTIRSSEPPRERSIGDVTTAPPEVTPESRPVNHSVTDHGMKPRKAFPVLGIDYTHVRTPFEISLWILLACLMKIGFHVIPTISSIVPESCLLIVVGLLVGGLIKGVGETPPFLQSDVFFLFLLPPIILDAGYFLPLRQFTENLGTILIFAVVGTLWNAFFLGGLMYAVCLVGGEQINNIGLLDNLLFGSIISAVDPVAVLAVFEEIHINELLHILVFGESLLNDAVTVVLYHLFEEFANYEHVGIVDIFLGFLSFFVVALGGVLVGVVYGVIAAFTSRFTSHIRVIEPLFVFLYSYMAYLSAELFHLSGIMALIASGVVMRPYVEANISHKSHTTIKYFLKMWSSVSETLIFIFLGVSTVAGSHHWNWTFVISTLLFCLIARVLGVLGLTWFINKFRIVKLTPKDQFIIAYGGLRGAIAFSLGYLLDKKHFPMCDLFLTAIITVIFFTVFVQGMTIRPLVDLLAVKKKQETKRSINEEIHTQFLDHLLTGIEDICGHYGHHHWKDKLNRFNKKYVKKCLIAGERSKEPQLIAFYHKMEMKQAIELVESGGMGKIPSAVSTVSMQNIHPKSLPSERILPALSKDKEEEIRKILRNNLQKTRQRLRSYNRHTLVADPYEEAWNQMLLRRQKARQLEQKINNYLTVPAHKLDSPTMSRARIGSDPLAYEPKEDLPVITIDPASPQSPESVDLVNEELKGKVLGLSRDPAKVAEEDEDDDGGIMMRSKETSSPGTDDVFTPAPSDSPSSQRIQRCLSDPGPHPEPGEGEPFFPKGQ
observation.type: log10(IC50) (log10 of the value in nM)

> print(dat)
                                   compound                          study.system  measured.value
1  N=C(N)NC(=O)c1ccc(C2CCN(C(=O)C3(N)CCOCC3)CC2)c(C(F)(F)F)c1  NHE-1 (Homo sapiens, UniProt P19634)            1.26
2  COc1cccc(C(=O)N2CCC(c3ccc(C(=O)NC(=N)N)cc3C(F)(F)F)CC2)c1OC  NHE-1 (Homo sapiens, UniProt P19634)            1.66
3  N=C(N)NC(=O)c1ccc(C2CCN(C(=O)c3ccc(Cl)cc3)CC2)c(C(F)(F)F)c1  NHE-1 (Homo sapiens, UniProt P19634)            2.51
4  CC(C)C(N)C(=O)N1CCC(c2ccc(C(=O)NC(=N)N)cc2C(F)(F)F)CC1 (centres unmarked)  NHE-1 (Homo sapiens, UniProt P19634)            1.08
5  N=C(N)NC(=O)c1ccc(C2CCN(C(=O)c3ccc4c(c3)CCO4)CC2)c(C(F)(F)F)c1  NHE-1 (Homo sapiens, UniProt P19634)            1.36
